test system: NCI-H82 cell; assay: Cell viability (Promega CellTiter-Glo) of NCI-H82 cell; format: cell-based; details: Homo sapiens; NCI-H82 cell, Table 1; read-out: IC50
For each record, write down the corresponding pIC50.
Numbers only, as −log10 of the molar value.

Known pIC50 results, listed for orientation:
- MOLECULE: "O=C(C[n+]1ccc2[nH]c(Cc3ccccc3)cc2c1)c1ccc(C(F)(F)F)cc1"
  TARGET_DESC: "NCI-H82 cell"
  pIC50: 5.41
- MOLECULE: "Cc1ccc2c(c1)C(=O)C([n+]1ccc3c(c1)c(C)cn3Cc1ccccc1)CC2 (stereo not drawn)"
  TARGET_DESC: "NCI-H82 cell"
  pIC50: 7.40
- MOLECULE: "O=C(C[n+]1ccc2c(Cc3ccccc3)c[nH]c2c1)c1ccc(C(F)(F)F)cc1"
  TARGET_DESC: "NCI-H82 cell"
  pIC50: 5.79
- MOLECULE: "Cc1ccc(C(=O)C[n+]2csc(NCc3ccccc3)c2)cc1"
  TARGET_DESC: "NCI-H82 cell"
  pIC50: 5.18
- MOLECULE: "O=C1c2cc(OC(F)(F)F)ccc2CCC1[n+]1ccc2c(ccn2Cc2ccccc2)c1 (stereo not drawn)"
  TARGET_DESC: "NCI-H82 cell"
  pIC50: 6.82
- MOLECULE: "CC(C)(C(=O)c1ccc(Cl)cc1)[n+]1ccc(NCc2ccccc2)cc1"
  TARGET_DESC: "NCI-H82 cell"
  pIC50: 5.23
- MOLECULE: "Cc1cc2c[n+](C3CCc4ccc(Cl)cc4C3=O)ccc2n1Cc1ccccc1 (stereo not drawn)"
  TARGET_DESC: "NCI-H82 cell"
  pIC50: 6.59
- MOLECULE: "O=C(C[n+]1ccc2c(c1)CCC(c1ccccc1)N2)c1ccc(Cl)cc1 (stereo not drawn)"
  TARGET_DESC: "NCI-H82 cell"
  pIC50: 6.15

Field: next molecule
Form: molecule = Cc1ccc(C(=O)C[n+]2ccc(N3CCc4ccccc4C3=O)cc2)cc1 ; pIC50 = 5.39
